Data provenance: the supplement of paper PMC10567573

B1: FUT8 (parent)
chain: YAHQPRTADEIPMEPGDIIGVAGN

Variants of: B1
Assay: protein stability index of a GFP-peptide fusion (GPS, HEK-293T) (PSI 1-6); higher = more stable;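 note: lentivirally expressed fusions sorted by FACS into six bins by GFP to DsRed ratio, PSI derived from sequencing read proportions per bin multiplied by bin number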
Conditions: c terminus: a fixed tail appended
Reported protein stability index by item:
Recorded Endpoint: protein stability index

# Mutant Designation, Assay Result
rows = [
    ("A2L", 4.67),
    ("I19K", 4.42),
    ("I19A", 4.67),
    ("G23L", 3.27),
    ("Y1T", 5.16),
    ("G20N", 4.29),
    ("E14G", 3.35),
    ("G16F", 2.93),
    ("E14D", 3.75),
    ("Q4H", 3.92),
    ("A8R", 3.89),
    ("D17W", 1.41),
    ("H3P", 2.92),
    ("Q4N", 4.07),
    ("T7K", 3.56),
    ("N24C", 3.57),
    ("Y1D", 5.19),
    ("N24E", 4.59),
    ("Y1L", 4.75),
    ("N24G", 3.43),
    ("T7P", 3.97),
    ("A2I", 3.15),
    ("Y1V", 4.28),
    ("Q4L", 4.26),
    ("M13A", 4.69),
]
